Cited source: patent US20040115622A1

biological target: HLA-DR molecule encoded by the allele DRB1*1101 (human); assay: competition ELISA vs biotinylated HA 306-318
property.label: IC50 (µM)

INSERT INTO results (binder, property_label, unit_spec, numeric_readout) VALUES
  ('PTVRERMRRAEPAAD (modifications not checked) [Nef1.4 peptide (positions 14-28 of the HIV-1 Nef protein, Bru strain), P03406 14-28]', 'IC50', 'µM', 1.25),
  ('LEWRFDSRLAFHHVA (modifications not checked) [Nef13.2 peptide (positions 181-195 of the HIV-1 Nef protein, Bru strain), P03406 181-195]', 'IC50', 'µM', 0.018),
  ('GKWSKSSVVGWPTVR (modifications not checked) [Nef1.1 peptide (positions 3-17 of the HIV-1 Nef protein, Bru strain), P03406 3-17]', 'IC50', 'µM', 1.75),
  ('FHHVARELHPEYFKN (modifications not checked) [Nef13.6 peptide (positions 191-205 of the HIV-1 Nef protein, Bru strain), P03406 191-205]', 'IC50', 'µM', 0.55),
  ('MGGKWSKSSVVGWPTVRERMRRAEPAADGVGAASRD (modifications not checked) [Nef1 peptide (positions 1-36 of the HIV-1 Nef protein, Bru strain), P03406 1-36]', 'IC50', 'µM', 0.55),
  ('EWRFDSRLAFHHVAREL (modifications not checked) [Nef13 peptide (positions 182-198 of the HIV-1 Nef protein, Bru strain), P03406 182-198]', 'IC50', 'µM', 0.048);
